# TEST METHOD NOTES: Half-life in BALB/c nude mouse at 20 mg/kg, po measured upto 24 hrs by LC-MS/MS analysis
# Format: ADME, organism-based
# STUDY CONDITIONS: in vivo
Positions of bridges follow the written chain, without caps; N, C: chain ends. Non-standard residues stand in square brackets, D forms with d. Residues, ends and D or L forms follow the SMILES beside them. *: point of attachment. hPhe(3-Cl-4-CF3) = N[C@@H](CCc1ccc(C(F)(F)F)c(Cl)c1)C(=O)O; NMeGly(cPent) = CN[C@H](C(=O)O)C1CCCC1; NMeCha = CN[C@@H](CC1CCCCC1)C(=O)O; NMeD = CN[C@@H](CC(=O)O)C(=O)O; NMeL = CN[C@@H](CC(C)C)C(=O)O; Morpholide = C1CN(*)CCO1; NMeA = CN[C@@H](C)C(=O)O; Piperidide = C1CCN(*)CC1; Ac5c = NC1(C(=O)O)CCCC1; Aze = O=C(O)[C@@H]1CCN1; Sar = CNCC(=O)O
PARAMETER: half-life

Lookup: Please report half-life for the following compound: CC[C@H](C)[C@@H]1NC(=O)[C@H](CC(C)C)N(C)C(=O)C[C@@H](C(=O)N2CCCCC2)N(C)C(=O)[C@H](C2CCCC2)N(C)C(=O)C2(CCCC2)NC(=O)[C@@H]2CCCN2C(=O)[C@H](CCc2ccc(C(F)(F)F)c(Cl)c2)NC(=O)CN(C)C(=O)[C@H](CC2CCCCC2)N(C)C(=O)[C@@H]2CCN2C(=O)[C@H](C)N(C)C1=O ([NMeL]I[NMeA][Aze][NMeCha][Sar][hPhe(3-Cl-4-CF3)]P[Ac5c][NMeGly(cPent)][NMeD]-Piperidide; lactam N-11)
Found: 6.46 h

Next:
Lookup: Check the records and state half-life for CC[C@H](C)[C@@H]1NC(=O)[C@H](CC(C)C)N(C)C(=O)C[C@@H](C(=O)N2CCOCC2)N(C)C(=O)[C@H](C2CCCC2)N(C)C(=O)C2(CCCC2)NC(=O)[C@@H]2CCCN2C(=O)[C@H](CCc2ccc(C(F)(F)F)c(Cl)c2)NC(=O)CN(C)C(=O)[C@H](CC2CCCCC2)N(C)C(=O)[C@@H]2CCN2C(=O)[C@H](C)N(C)C1=O ([NMeL]I[NMeA][Aze][NMeCha][Sar][hPhe(3-Cl-4-CF3)]P[Ac5c][NMeGly(cPent)][NMeD]-Morpholide; lactam N-11)
Found: 4.16 h
